- Test system: southern armyworm (Spodoptera eridania [Cram.])
- ASSAY PROCEDURE: Initial contact activity against southern armyworm (percent kill)
- Assay type: in vivo
- MEASUREMENT CONTEXT: 5 ppm, 72 hours exposure, read-out: Percent Kill AW, initial activity
PROPERTY: mortality at 5 ppm (%)

- MOLECULE: "CC1(C)C(C=C(Cl)Sc2ccccc2)C1C(=O)OC(C#N)c1cccc(Oc2ccccc2)c1 (mixture of isomers) [Example 3]"
  REPORTED MEASUREMENT: 0
- MOLECULE: "CC1(C)C(C=C(Cl)Sc2ccccc2)C1C(=O)OCc1cccc(Oc2ccccc2)c1 (mixture of isomers) [Example 4]"
  REPORTED MEASUREMENT: 11
- MOLECULE: "CC1(C)C(C=CSc2ccccc2)C1C(=O)OCc1cccc(Oc2ccccc2)c1 (mixture of isomers) [Example 1]"
  REPORTED MEASUREMENT: 0
- MOLECULE: "CC1(C)C(C=CSc2ccccc2)C1C(=O)OC(C#N)c1cccc(Oc2ccccc2)c1 (mixture of isomers) [Example 2]"
  REPORTED MEASUREMENT: 0

###

Measured activity at 312 ppm accompanies every entry in the list below.
- Test system: Southern armyworm
- ASSAY PROCEDURE: 7-day residual contact activity against southern armyworm (percent kill)
- Assay type: in vivo
- MEASUREMENT CONTEXT: Spodoptera eridania, 168 h; 312 ppm; treated surface aged seven days in light and air; read-out: Percent Kill AW, 7-day residual activity

- MOLECULE: "CC1(C)C(C=C(Cl)Sc2ccccc2)C1C(=O)OC(C#N)c1cccc(Oc2ccccc2)c1 (mixture of isomers)"
  activity at 312 ppm, %: 53
- MOLECULE: "CC1(C)C(C=CSc2ccccc2)C1C(=O)OC(C#N)c1cccc(Oc2ccccc2)c1 (mixture of isomers)"
  activity at 312 ppm, %: 0
- MOLECULE: "CC1(C)C(C=CSc2ccccc2)C1C(=O)OCc1cccc(Oc2ccccc2)c1 (mixture of isomers)"
  activity at 312 ppm, %: 0
- MOLECULE: "CC1(C)C(C=C(Cl)Sc2ccccc2)C1C(=O)OCc1cccc(Oc2ccccc2)c1 (mixture of isomers)"
  activity at 312 ppm, %: 55

###

- Tested on: Southern armyworm
- ASSAY PROCEDURE: 7-day residual contact activity against southern armyworm (percent kill)
- Format: in vivo
- MEASUREMENT CONTEXT: Spodoptera eridania, 168 h; 1250 ppm; treated surface aged seven days in light and air; read-out: Percent Kill AW, 7-day residual activity
Measured activity at 1250 ppm accompanies every entry in the list below.
PROPERTY: activity at 1250 ppm

- MOLECULE: "CC1(C)C(C=C(Cl)Sc2ccccc2)C1C(=O)OC(C#N)c1cccc(Oc2ccccc2)c1 (mixture of isomers) [Example 3]"
  ASSAYED SYSTEM: "Southern armyworm"
  REPORTED MEASUREMENT: "100%"
- MOLECULE: "CC1(C)C(C=C(Cl)Sc2ccccc2)C1C(=O)OCc1cccc(Oc2ccccc2)c1 (mixture of isomers) [Example 4]"
  ASSAYED SYSTEM: "Southern armyworm"
  REPORTED MEASUREMENT: "95%"
- MOLECULE: "CC1(C)C(C=CSc2ccccc2)C1C(=O)OCc1cccc(Oc2ccccc2)c1 (mixture of isomers) [Example 1]"
  ASSAYED SYSTEM: "Southern armyworm"
  REPORTED MEASUREMENT: "0%"
- MOLECULE: "CC1(C)C(C=CSc2ccccc2)C1C(=O)OC(C#N)c1cccc(Oc2ccccc2)c1 (mixture of isomers) [Example 2]"
  ASSAYED SYSTEM: "Southern armyworm"
  REPORTED MEASUREMENT: "0%"
